System: Pseudomonas aeruginosa
Assay: Antimicrobial activity against Pseudomonas aeruginosa 15159 after 21 hrs by broth microdilution method
Type: functional
Details: Pseudomonas aeruginosa, 15159, 21 h
Measured attribute: MIC (µM)
Give bare numbers, in µM.

Problem: Dear colleague, please send me the reported MIC for CC[C@H](C)[C@H](NC(=O)[C@H](CCCNC(=N)N)NC(=O)[C@H](CCC(N)=O)NC(=O)[C@@H](NC(=O)[C@@H](NC(=O)[C@H](CCCNC(=N)N)NC(=O)[C@H](CCCCN)NC(=O)[C@H](Cc1ccccc1)NC(=O)[C@@H](N)CCC(=O)O)[C@@H](C)CC)C(C)C)C(=O)N[C@@H](CCCCN)C(=O)N[C@@H](CC(=O)O)C(=O)N[C@@H](Cc1ccccc1)C(=O)N[C@@H](CC(C)C)C(=O)N[C@@H](CCCNC(=N)N)C(=O)N[C@@H](CC(N)=O)C(=O)N[C@@H](CC(C)C)C(=O)N[C@H](C(=O)O)C(C)C when you can.
Solution: 80

Let's switch to this compound now.
Problem: # return recorded MIC for input CC[C@H](C)[C@H](NC(=O)[C@H](CCCNC(=N)N)NC(=O)[C@H](CCC(N)=O)NC(=O)[C@@H](NC(=O)[C@@H](NC(=O)[C@H](CCCNC(=N)N)NC(=O)[C@H](CCCCN)NC(=O)[C@H](Cc1ccccc1)NC(=O)[C@H](CCC(=O)O)NC(C)=O)[C@@H](C)CC)C(C)C)C(=O)N[C@@H](CCCCN)C(=O)N[C@@H](CC(=O)O)C(=O)N[C@@H](Cc1ccccc1)C(=O)N[C@@H](CC(C)C)C(=O)N[C@@H](CCCNC(=N)N)C(=O)N[C@@H](CC(N)=O)C(=O)N[C@@H](CC(C)C)C(=O)N[C@H](C(N)=O)C(C)C
Solution: 10
